// reported protein stability index per item
B1: ZNF263 (parent)
chain: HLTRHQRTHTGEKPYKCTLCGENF

Variants of: B1
testSummary: protein stability index of a GFP-peptide fusion (GPS, HEK-293T) (PSI 1-6); higher = more stable;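 also: lentivirally expressed fusions sorted by FACS into six bins by GFP to DsRed ratio, PSI derived from sequencing read proportions per bin multiplied by bin number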
testSettings: c terminus: a fixed tail appended
assayMetric: protein stability index

[[record]]
mut = "G11K"
assaymetric = "protein stability index"
endpointresult = 3.06

[[record]]
mut = "L19R"
assaymetric = "protein stability index"
endpointresult = 3.03

[[record]]
mut = "G21S"
assaymetric = "protein stability index"
endpointresult = 2.99

[[record]]
mut = "H5K"
assaymetric = "protein stability index"
endpointresult = 2.98

